Kd values for the binders below.
- EXPERIMENTAL_TARGET: T1, EsCas13d, nuclease-dead (Eubacterium siraeum, UniProt B0MS50, R295A;H300A;R849A;H854A)
- T1 sequence: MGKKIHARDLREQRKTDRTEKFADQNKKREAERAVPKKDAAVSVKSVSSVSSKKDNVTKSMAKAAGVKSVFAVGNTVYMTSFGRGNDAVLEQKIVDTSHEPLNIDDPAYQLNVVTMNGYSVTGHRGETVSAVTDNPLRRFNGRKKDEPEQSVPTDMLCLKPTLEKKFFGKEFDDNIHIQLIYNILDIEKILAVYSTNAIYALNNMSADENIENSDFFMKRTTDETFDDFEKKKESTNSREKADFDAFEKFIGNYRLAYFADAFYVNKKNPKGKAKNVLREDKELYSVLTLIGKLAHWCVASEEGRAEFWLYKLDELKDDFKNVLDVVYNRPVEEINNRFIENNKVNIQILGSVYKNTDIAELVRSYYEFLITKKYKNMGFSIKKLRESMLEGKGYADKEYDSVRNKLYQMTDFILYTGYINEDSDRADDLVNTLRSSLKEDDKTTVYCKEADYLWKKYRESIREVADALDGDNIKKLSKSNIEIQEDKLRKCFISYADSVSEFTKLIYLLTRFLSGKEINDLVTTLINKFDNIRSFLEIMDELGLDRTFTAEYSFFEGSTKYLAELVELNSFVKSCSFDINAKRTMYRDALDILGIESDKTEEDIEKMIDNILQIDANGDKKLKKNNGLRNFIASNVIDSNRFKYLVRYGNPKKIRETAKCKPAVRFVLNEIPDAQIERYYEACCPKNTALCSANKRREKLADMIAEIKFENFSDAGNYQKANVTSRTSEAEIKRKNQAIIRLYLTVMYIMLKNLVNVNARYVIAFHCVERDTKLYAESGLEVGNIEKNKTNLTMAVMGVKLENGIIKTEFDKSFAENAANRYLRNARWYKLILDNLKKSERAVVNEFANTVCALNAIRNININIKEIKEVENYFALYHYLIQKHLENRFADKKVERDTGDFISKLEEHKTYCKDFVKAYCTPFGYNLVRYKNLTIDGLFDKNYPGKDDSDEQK
- PROCEDURE_TEXT: crRNA (strand 1, pre-loaded); Mg2+; 40 mM Tris-HCl pH 7.5, 150 mM NaCl, 6 mM MgCl2, 1 mM DTT, 0.1% Tween-20, 0.2 mg/ml BSA; 25 C; 10 min per concentration, then washed
- EXPERIMENTAL_PARAMETERS: tags: His6-TwinStrep-SUMO cleaved; N-terminal SNAP kept (SNAP-Surface 488); label: 3' end held by stalled T7 RNA polymerase
// return numeric value only (unit: nM, not printed)

Solved entries:
binder="target 1 U10A,U11A (mixed) RNA 1: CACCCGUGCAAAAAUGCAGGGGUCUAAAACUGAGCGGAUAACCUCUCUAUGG RNA 2: GGGAAUGGAUCCACAUCUACGAAUUCGUACCAUAGAGAGGAAAUCCGCUCACCGAGAUCGGAAGAGCACACGU" observed_result=11.8
binder="target 1 insC 3' of 8,insU 3' of 6 (mixed) RNA 1: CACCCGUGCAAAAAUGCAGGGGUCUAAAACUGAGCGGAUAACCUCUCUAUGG RNA 2: GGGAAUGGAUCCACAUCUACGAAUUCGUACCAUAGAGAGGUUAUCCCUGCUCACCGAGAUCGGAAGAGCACACGU" observed_result=21.1
binder="target 1 MT 5'PFS UGG 3'PFS ACG (mixed) RNA 1: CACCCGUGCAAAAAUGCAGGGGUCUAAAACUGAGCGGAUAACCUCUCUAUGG RNA 2: GGGAAUGGAUCCACAUCUACGAAUUCUGGCCAUAGAGAGGUUAUCCGCUCAACGAGAUCGGAAGAGCACACGU" observed_result=54
binder="target 1 insC 3' of 13,insU 3' of 1 (mixed) RNA 1: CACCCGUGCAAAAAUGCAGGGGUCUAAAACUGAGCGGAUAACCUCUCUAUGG RNA 2: GGGAAUGGAUCCACAUCUACGAAUUCGUACCAUAGAGAGCGUUAUCCGCUCAUCCGAGAUCGGAAGAGCACACGU" observed_result=11.5
binder="target 3 insC 3' of 4,insU 3' of 3 (mixed) RNA 1: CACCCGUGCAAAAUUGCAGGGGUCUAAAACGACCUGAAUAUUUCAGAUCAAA RNA 2: GGGAAUGGAUCCACAUCUACGAAUUCGUUUUUGAUCUGAAAUAUUCAGCGUUCUGCAGAUCGGAAGAGCACACGU" observed_result=29.1

Suppose we examine the binder target 1 insG 3' of 8,insA 3' of 3 (mixed) RNA 1: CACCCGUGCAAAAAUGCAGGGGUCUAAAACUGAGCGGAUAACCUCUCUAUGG RNA 2: GGGAAUGGAUCCACAUCUACGAAUUCGUACCAUAGAGAGGUUAUGCCGCUACACCGAGAUCGGAAGAGCACACGU ; what Kd value has been reported?
8.3

Suppose we examine the binder target 1 A1C,C4U (mixed) RNA 1: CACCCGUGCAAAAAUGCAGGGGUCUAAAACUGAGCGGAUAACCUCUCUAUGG RNA 2: GGGAAUGGAUCCACAUCUACGAAUUCGUACCAUAGAGAGGUUAUCCGUUCCCCGAGAUCGGAAGAGCACACGU ; what Kd value has been reported?
9.8

Suppose we examine the binder target 1 insC 3' of 19,insC 3' of 1 (mixed) RNA 1: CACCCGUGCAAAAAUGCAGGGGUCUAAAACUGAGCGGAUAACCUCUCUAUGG RNA 2: GGGAAUGGAUCCACAUCUACGAAUUCGUACCAUCAGAGAGGUUAUCCGCUCACCCGAGAUCGGAAGAGCACACGU ; what Kd value has been reported?
26.4

Suppose we examine the binder target 3 insU 3' of 22,insG 3' of 6 (mixed) RNA 1: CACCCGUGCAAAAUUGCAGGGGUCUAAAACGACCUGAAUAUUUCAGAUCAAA RNA 2: GGGAAUGGAUCCACAUCUACGAAUUCGUUUUUUGAUCUGAAAUAUUCGAGGUCUGCAGAUCGGAAGAGCACACGU ; what Kd value has been reported?
7.7

Suppose we examine the binder target 1 U10A,A16U (mixed) RNA 1: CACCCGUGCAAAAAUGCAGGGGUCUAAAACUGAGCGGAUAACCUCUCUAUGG RNA 2: GGGAAUGGAUCCACAUCUACGAAUUCGUACCAUAGUGAGGUAAUCCGCUCACCGAGAUCGGAAGAGCACACGU ; what Kd value has been reported?
42

Suppose we examine the binder target 1 A9U,U11C (mixed) RNA 1: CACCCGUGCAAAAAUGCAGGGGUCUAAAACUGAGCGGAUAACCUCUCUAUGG RNA 2: GGGAAUGGAUCCACAUCUACGAAUUCGUACCAUAGAGAGGCUUUCCGCUCACCGAGAUCGGAAGAGCACACGU ; what Kd value has been reported?
13

Suppose we examine the binder target 1 A1C,G5C (mixed) RNA 1: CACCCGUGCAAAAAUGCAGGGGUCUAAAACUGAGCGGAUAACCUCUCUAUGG RNA 2: GGGAAUGGAUCCACAUCUACGAAUUCGUACCAUAGAGAGGUUAUCCCCUCCCCGAGAUCGGAAGAGCACACGU ; what Kd value has been reported?
9

Suppose we examine the binder target 1 insA 3' of 3,insU 3' of 2 (mixed) RNA 1: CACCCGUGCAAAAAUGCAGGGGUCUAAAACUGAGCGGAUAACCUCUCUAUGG RNA 2: GGGAAUGGAUCCACAUCUACGAAUUCGUACCAUAGAGAGGUUAUCCGCUACUACCGAGAUCGGAAGAGCACACGU ; what Kd value has been reported?
9

Suppose we examine the binder target 2 MT 5'PFS GGC 3'PFS UUC (mixed) RNA 1: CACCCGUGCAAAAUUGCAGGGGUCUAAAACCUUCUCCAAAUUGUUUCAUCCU RNA 2: GGGAAUGGAUCCACAUCUACGAAUUCGGCAGGAUGAAACAAUUUGGAGAAGUUCAGAUCGGAAGAGCACACGU ; what Kd value has been reported?
18.8

Entry source: paper PMC10786891
